# TEST PROTOCOL: Solubility of eszopiclone in phosphate buffer media at pH 6.8
# Format: physicochemical
# EXPERIMENTAL PARAMETERS: phosphate buffer, pH 6.8, aqueous buffer, thermodynamic from solid, phosphate buffer pH 6.8, room temperature, 60 minutes stirring, filtered 0.45 μm, UV spectroscopy
ASSAY READOUT: solubility at 60 min (µg/mL)
The figure you give is taken to be in µg/mL; do not add the unit.

Give a short answer stating reported solubility at 60 min for CN1CCN(C(=O)O[C@H]2c3nccnc3C(=O)N2c2ccc(Cl)cn2)CC1 [Eszopiclone with d(0.9) > 200 μm] .
570
